These entries and their values trace back to PubChem BioAssay (NCI).

Exercise: state measured growth inhibition for each of the compounds provided.
Assay: NCI Yeast Anticancer Drug Screen. Data for the rad50 strain (AID 155);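 also: 0% = growth of vehicle-only cultures of the same strain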
Conditions: S. cerevisiae rad50 strain growth inhibition; at 50.0 µM; hits give high values
About 79,000 compounds went through this panel and 15% of them were active in at least one assay; those are over-represented in the sample as a whole.
All answers are understood in %, so give the number only.

# lookup: growth inhibition of "CCCCCCC(N)(CCCCCC)C(=O)Nn1c(C)ccc1C"
45

Value lookup for growth inhibition; key = "O=C(O)c1c(Br)c(Br)c(Br)c(Br)c1C(=O)Nc1ccc(Cl)cc1C(F)(F)F"
1.35

Entry under review: "O=C(O)CCCc1ccc2c(c1)CC1(C2)Cc2cc3c(cc2C1)CCCC3" . Reported growth inhibition?
-11.7

Tell me the measured growth inhibition of "O=C1Nc2ccccc2Nc2nc3cccccc-3c21" , please.
9.85

// growth inhibition lookup, key: CC(OS(C)(=O)=O)C(C)OS(C)(=O)=O (configuration not stated)
2.4

Sample "CNC(=O)N(C)C(C)=O" — what was its growth inhibition?
-6.15

Param item = CCCCN1C(=O)c2cc(=O)[nH]c(O)c2C1C (configuration not stated) ; retrieve measured growth inhibition.
-19.4

Can you share its growth inhibition? I mean this compound: "CCCCc1ccc(Nc2c(C(=O)OCC)cnc3cc4c(cc23)OCO4)cc1"
4.6

Which growth inhibition is listed for "CCOC(=O)C1=C(NC(C)(C)C)OC/C1=N\NC(=O)Cc1ccccc1" ?
42.8

Would you mind telling me what growth inhibition value was observed for "CC(=O)N(C)c1cccc2ccccc12" ?
17.9

# query: growth inhibition of entry "Cc1c(C(=O)CC(=O)C(=O)Nc2ccccc2C(F)(F)F)[n+](=O)c2ccccc2n1[O-]"
5.4

Sample "NCCn1ccnc1" — what was its growth inhibition?
13.3

Field request: growth inhibition | item: CCCCCCCCC1CC(=O)OC1=O (configuration not stated)
0.05

Could you share which growth inhibition value was measured for C=CCN(N=O)C(=O)N(CCC)CCCC(NC(C)=O)C(=O)NCc1ccccc1 (configuration not stated) ?
-3.2

Requested read-out: growth inhibition. Entry: "COc1ccccc1NC(=S)N/N=C/c1ccccn1"
-16.6

Returns the measured growth inhibition for the input compound. Input: "COc1ccccc1NC(=O)CC(=O)n1nc(-c2ccccc2)c(N=Nc2ccccc2[N+](=O)[O-])c1-c1ccccc1"
-0.4

# get_value(readout='growth inhibition', item= CC(Cc1ccccc1)NC(=O)CCCN1C(=O)c2ccccc2C1=O (configuration not stated) )
-2.55

Entry "Cc1ccc(C)c2c(CC(=O)O)c[nH]c12" : reported growth inhibition = ?
-4.35

Item under review: "Cc1cccc(C(=O)OCCCl)c1" . Reported growth inhibition?
15.6

// lookup growth inhibition for "CS/C(=C\c1ccc2cc(C)ccc2[n+]1C)N1CCOCC1"
7.25

Requested field: growth inhibition. Item: "COc1ccc(/C(C#N)=C/c2ccc(N(C)CCC#N)cc2)cc1"
28.2

Could you tell me which growth inhibition is on file for "CC(=O)Nc1ccc(S(=O)(=O)N=S(c2ccccc2)c2ccccc2)cc1" ?
14.7

====

Test: NCI Yeast Anticancer Drug Screen. Data for the bub3 strain (AID 167)
Settings: S. cerevisiae bub3 mutant strain, at 50.0 µM, hits give high values
The panel holds about 79,000 compounds, 15% with a hit somewhere; the sample as a whole holds those more often. Where a SMILES comes first, the peptide text is derived from it.
experimentalEndpoint: growth inhibition (%)
Report only the number, with the unit % understood.

Tell me the measured growth inhibition of CC(C)CC(NC(=O)C(CCC(=O)O)NC(=O)CNC(=O)CNC(=O)C(CO)NC(=O)C(CC(C)C)NC(=O)C(NC(=O)C(CO)NC(=O)C(C)NC(=O)C(CCCNC(=N)N)NC(=O)C(C)NC(=O)CN)C(C)C)C(=O)NC(CC(=O)O)C(=O)NC(CCCNC(=N)N)C(=O)NC(Cc1c[nH]c2ccccc12)C(=O)NC(Cc1ccc(O)cc1)C(N)=O (stereo unspecified) (H-GARASVLSGGELDRWY-NH2; configuration not given here) , please.
-5.85

Could you share which growth inhibition value was measured for "Cc1cc(O)cc(C)c1Cl" ?
12.9

Which growth inhibition reading was recorded for the compound "CN(C)c1ccc(C=Nc2cc(S(=O)(=O)O)cc3cc(S(=O)(=O)O)cc(O)c23)cc1" ?
12.4

Look up growth inhibition: "C1=C(c2ccccc2)c2ccccc2CC1"
2.2

Need growth inhibition of C1CC2CC1CC2C1CO1 (stereo unspecified) , thanks.
0.5

Look at this compound and give its reported growth inhibition. CCNC(=O)C1CC2C=CC1C2 (stereo unspecified)
3.05

# growth inhibition lookup, item "O=C(Cc1ccccc1)NN1C(=O)/C(=C\c2ccc([N+](=O)[O-])cc2)SC1=Nc1ccccc1"
-18.9

// growth inhibition lookup, key: CNC(=O)NC1CCC(C)CC1 (stereo unspecified)
-6.25

# lookup: growth inhibition of "CCOC(=O)c1[nH]n(-c2ccccc2)c(=O)c1/C=N/C(N)=S"
17.8

What value of growth inhibition has been reported for the following compound? "O=C1C=C(CCC2=CC(=O)c3ccccc3C2=O)C(=O)c2ccccc21"
-26.5

Can you look up the measured growth inhibition of O=C1C(c2ccccc2)=C2c3ccccc3-c3ccccc3C2(O)C1c1ccccc1 (stereo unspecified) for me?
90.9

Could you share which growth inhibition value was measured for "O=c1/c(=C/c2ccccc2F)sc2nc3ccccc3n12" ?
21.1

Which measured growth inhibition value corresponds to "O=C(COc1ccc(Cl)cc1Cl)Nc1ccc(N=Nc2ccccc2)cc1" ?
-2.8

Quick one: growth inhibition for "O=c1c2cc([N+](=O)[O-])ccc2sc2ccsc12" ?
-10.6

GET /values?readout=growth inhibition&item= CC1(C)OCC2OC=CC(=O)C2O1 (stereo unspecified)
-14.1

Need growth inhibition of "COc1cc(CCNC2=CC(=O)c3ncccc3C2=O)ccc1O" , thanks.
5.8

Given the entry "Cc1nc2cc(N)c(Cl)cc2[nH]1" , report its measured growth inhibition.
10.5

Report growth inhibition for "CC1=C(CCCO)/C(=N\O)CCC1" please.
17.5

I would be grateful if you could share the reported growth inhibition for "CCOC(=O)Nc1ccc(F)cc1F" .
8.65

Look up growth inhibition: "COc1ccc(NC(C)=O)c(O)c1C"
-3.7

I would be grateful if you could share the reported growth inhibition for "COc1cc2ccc3c[n+]4ccccc4cc3c2cc1OC" .
20.2

Bench note: what growth inhibition did COc1ccc(/C=C\c2cc(OC)c(OC)c(OC)c2)cc1OC(=O)CC(N)C(=O)O (stereo unspecified) show?
-1.55

What value of growth inhibition has been reported for the following compound? "O=[N+]([O-])c1ccc(Cl)c(OCCCBr)c1"
57.2

Reported growth inhibition, compound "Cc1[nH]c(/N=C/c2ccc(N(C)C)cc2)c(C#N)c1C" : ____
-5.75

What value of growth inhibition has been reported for the following compound? CNC(C#N)c1ccco1 (stereo unspecified)
13.4

# growth inhibition lookup, item "Cc1nc(C(=O)O)c2ccccc2n1"
-9.65

// query growth inhibition value for entry COc1ccc(C2=CC(=O)C(C)(C#N)CC2)cc1 (stereo unspecified)
34

So what's the measured growth inhibition for this one? "Cc1ccc(N=NN(C)C)cc1"
1.55

Requested field: growth inhibition. Item: "CCCCc1c2cnccc2c(CCCC)c2c1[nH]c1ccccc12"
89.2

Reported growth inhibition, compound "CCN(CC)CCSc1cc(C)c2ccc(N)nc2n1" : ____
8.6

For the compound shown here, "CCCCOCCOCCOS(=O)(=O)c1ccc(C)cc1" , give the reported growth inhibition.
10.2

====

Assay: NCI Yeast Anticancer Drug Screen. Data for the mlh1 rad18 strain (AID 175)
Settings: S. cerevisiae mlh1 rad18 strain growth inhibition; at 50.0 µM
Compounds without any hit were thinned out: in the full panel of roughly 79,000, 15% have a hit. The source made the active and inactive calls. No stated cut-off is given here; in the data, active means growth inhibition above about 70%; inactive means the rest.
Answer with one of the outcomes given here: y (active), n (inactive)

How was "O=c1cc2n(c(=O)n1-c1ccccc1)CCCC2" classified in this test?
n

What is the recorded call for this compound in the test? "CC(C)Cc1ccc(NC2=C(Cl)C(=O)c3ccccc3C2=O)cc1"
n

Record request — test call for "CCOC(=O)C(C)(C)Oc1ccc2c(-c3ccc(Cl)cc3)cc(=O)oc2c1"
n

// return assay outcome for "Cc1cc(Br)ccc1Br"
n

Short answer needed: outcome of this test for CCOC1CS(=O)(=O)CC(OCC)O1 (configuration not stated) ?
n

Fill in: this test's call for CC(=O)OCC1OC(N=[N+]=[N-])C(OC(C)=O)C(OC(C)=O)C1OC1OC(COC(C)=O)C(OC(C)=O)C(OC(C)=O)C1OC(C)=O (configuration not stated) is ___
n

Called result for "O=C1C/C(=C\c2ccccc2O)C(=O)c2ccccc21"
y

Dear all, I need the recorded test outcome for "CCCNc1nc(N)[nH]c(=O)c1NC=O" , thank you.
n

// param item: "O=C(Oc1c(Cl)c(Cl)c(Cl)c(Cl)c1Cl)c1ccc([N+](=O)[O-])cc1" ; yields the recorded call
n

Returns: the outcome recorded for "O=C(c1cccc(Cl)c1)c1cccc2ccccc12" in this assay.
n

# outcome recorded in this test, key = CCCCCCCCCCCCCCCCCC1(c2ccccc2)NC(=O)NC1=O (configuration not stated)
n

Test call for this compound, please: O=c1c(-c2ccccc2)nc2ccccc2n1CC1CCCN2CCCC[C@H]12 (some centres not stated)
n

What outcome does the record of this test show for "Cc1cccc(C(=O)OCCCl)c1" ?
n

How did this test come out for "C[N+](C)(C)CCCc1ccc2oc3ccccc3c2c1" ?
n

Identify the outcome logged in this assay for the compound shown: "CCCCCCCCCCCCCCCO"
n

Lab log entry: "Cc1nc(-n2nc(-c3ccccc3)cc2-c2ccccc2)sc1C(/C=C/c1ccc([N+](=O)[O-])cc1)=N/NC(=O)c1ccncc1" — outcome as called in the assay?
n

Field: outcome | Entry: "Cc1cccnc1C"
n

Give the logged outcome of this assay for the following compound: "CSc1nc(SC)c2c(C(N)=S)[nH]nc2n1"
n

Which result was noted for this compound in the test: "c1ccc2cc3c(NC4=NCCO4)cccc3cc2c1"
n

// return assay outcome for "Nc1nnc2nc(CC(=O)c3ccccc3)c(CC(=O)c3ccccc3)nn12"
n

Per the assay record, what outcome was assigned to "NCCCc1c(-c2ccccc2)nc(N)[nH]c1=O" ?
n

Record request — test call for COc1cc(C(=O)C(C=O)c2ccccc2)c([N+](=O)[O-])cc1OC (configuration not stated)
n
